Hello, the source for this data is patent US9896440B2, in case you need it.

inhibition at 3 µM overview
target: Human CaV2.2 channels (Homo sapiens); construct: expressed in transfected cells; Kir2.3 also stably co-expressed; assay: Fluorescence assay for CaV2.2 channels using potassium depolarization to induce channel opening (FLIPR, Fluo 4); format: cell-based; conditions: HEK293, 3 μM test compound, 30 mM KCl assay buffer (inactivated channel state), HEK293 cells; read-out: Activity Category: %-Inhib (CaV2.2) @3 μM @30 mM KCl
Sequence (Q00975 whole entry): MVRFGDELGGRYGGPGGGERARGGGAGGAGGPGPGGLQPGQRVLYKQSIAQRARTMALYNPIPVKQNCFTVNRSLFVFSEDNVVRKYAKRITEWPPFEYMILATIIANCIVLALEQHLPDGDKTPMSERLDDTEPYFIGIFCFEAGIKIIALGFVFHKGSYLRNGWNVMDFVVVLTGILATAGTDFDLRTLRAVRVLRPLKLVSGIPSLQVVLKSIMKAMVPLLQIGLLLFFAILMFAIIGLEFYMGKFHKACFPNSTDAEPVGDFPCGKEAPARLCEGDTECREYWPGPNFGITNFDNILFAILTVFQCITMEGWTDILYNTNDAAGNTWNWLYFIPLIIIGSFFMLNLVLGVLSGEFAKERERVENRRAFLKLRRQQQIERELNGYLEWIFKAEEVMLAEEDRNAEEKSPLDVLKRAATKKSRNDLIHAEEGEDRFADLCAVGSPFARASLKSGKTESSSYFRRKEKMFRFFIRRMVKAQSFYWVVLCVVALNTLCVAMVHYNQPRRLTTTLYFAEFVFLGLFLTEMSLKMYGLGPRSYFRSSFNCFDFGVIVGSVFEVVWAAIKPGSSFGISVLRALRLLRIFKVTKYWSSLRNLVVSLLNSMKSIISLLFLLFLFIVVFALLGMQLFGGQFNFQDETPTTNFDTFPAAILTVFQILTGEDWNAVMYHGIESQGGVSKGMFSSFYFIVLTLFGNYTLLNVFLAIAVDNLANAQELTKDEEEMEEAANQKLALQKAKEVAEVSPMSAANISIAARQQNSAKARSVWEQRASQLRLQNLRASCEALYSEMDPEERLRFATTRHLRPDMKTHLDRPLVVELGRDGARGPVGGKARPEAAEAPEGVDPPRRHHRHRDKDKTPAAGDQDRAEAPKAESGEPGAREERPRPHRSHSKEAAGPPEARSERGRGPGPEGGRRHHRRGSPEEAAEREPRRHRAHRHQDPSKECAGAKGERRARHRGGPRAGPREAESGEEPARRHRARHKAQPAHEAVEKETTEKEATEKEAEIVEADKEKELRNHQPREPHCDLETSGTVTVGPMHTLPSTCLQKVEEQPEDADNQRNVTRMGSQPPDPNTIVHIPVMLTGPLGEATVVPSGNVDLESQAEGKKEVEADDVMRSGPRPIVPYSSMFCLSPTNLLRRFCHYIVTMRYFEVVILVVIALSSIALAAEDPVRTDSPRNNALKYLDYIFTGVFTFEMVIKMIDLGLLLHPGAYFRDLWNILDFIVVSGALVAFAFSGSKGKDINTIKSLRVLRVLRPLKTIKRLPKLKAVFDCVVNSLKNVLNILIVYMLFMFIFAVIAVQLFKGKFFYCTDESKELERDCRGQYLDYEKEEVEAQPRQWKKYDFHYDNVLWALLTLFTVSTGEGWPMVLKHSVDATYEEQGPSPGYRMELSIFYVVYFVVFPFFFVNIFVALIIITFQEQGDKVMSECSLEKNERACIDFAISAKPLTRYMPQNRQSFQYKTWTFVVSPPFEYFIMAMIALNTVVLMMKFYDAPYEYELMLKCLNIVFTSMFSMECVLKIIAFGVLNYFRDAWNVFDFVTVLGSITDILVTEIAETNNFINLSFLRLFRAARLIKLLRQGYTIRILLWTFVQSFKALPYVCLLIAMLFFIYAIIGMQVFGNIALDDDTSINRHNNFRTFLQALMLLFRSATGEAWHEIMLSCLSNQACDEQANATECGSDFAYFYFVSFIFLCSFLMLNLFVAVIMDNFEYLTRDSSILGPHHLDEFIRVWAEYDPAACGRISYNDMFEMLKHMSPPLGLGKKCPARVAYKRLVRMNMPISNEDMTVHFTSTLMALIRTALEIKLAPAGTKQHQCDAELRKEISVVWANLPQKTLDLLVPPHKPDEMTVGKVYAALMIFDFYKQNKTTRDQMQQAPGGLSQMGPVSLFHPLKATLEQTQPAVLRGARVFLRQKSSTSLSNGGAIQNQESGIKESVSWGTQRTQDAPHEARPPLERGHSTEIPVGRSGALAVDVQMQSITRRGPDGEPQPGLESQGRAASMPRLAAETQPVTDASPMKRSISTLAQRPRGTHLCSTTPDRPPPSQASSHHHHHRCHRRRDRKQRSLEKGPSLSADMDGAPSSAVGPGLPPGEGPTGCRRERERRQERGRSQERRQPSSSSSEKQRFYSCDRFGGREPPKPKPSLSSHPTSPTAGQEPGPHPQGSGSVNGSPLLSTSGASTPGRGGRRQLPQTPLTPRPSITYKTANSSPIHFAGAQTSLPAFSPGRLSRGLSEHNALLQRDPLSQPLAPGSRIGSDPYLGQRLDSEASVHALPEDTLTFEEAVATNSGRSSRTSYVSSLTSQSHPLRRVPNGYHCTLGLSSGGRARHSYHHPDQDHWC
recorded endpoint: inhibition at 3 µM

CC1(S(=O)(=O)c2cccc(C(F)(F)F)c2)CCOC(c2cc(S(C)(=O)=O)ccc2Cl)C1 (stereo not shown) : > 95%
CC1(c2ccc(Cl)cc2)CC(S(=O)(=O)c2cccc(C(F)(F)F)c2)CCO1 (single isomer, unassigned) [SC-117] : > 95%
Cc1ccc(S(C)(=O)=O)cc1C1CC(C)(S(=O)(=O)c2cccc(C(F)(F)F)c2)CCO1 (stereo not shown) : 75 to 95%
CC1(S(=O)(=O)c2cc(F)cc(C(F)(F)F)c2)CCOC(c2ccc(Cl)cc2)C1 (stereo not shown) [SC-303] : 75 to 95%
CC1(S(=O)(=O)c2cccc(C(F)(F)F)n2)CCOC(c2ccc(Cl)cc2)C1 (stereo not shown) : 75 to 95%
CC1(S(=O)(=O)c2cccc(C(F)(F)F)c2)CCOC(c2ccc(S(C)(=O)=O)c(C#N)c2)C1 (stereo not shown) : > 95%
CC1(S(=O)(=O)c2cccc(C(F)(F)F)c2)CCOC(c2ccc(Cl)cc2)C1 (stereo not shown) : > 95%
CCc1nc2cc(C3CC(C)(S(=O)(=O)c4cccc(C(F)(F)F)c4)CCO3)ccc2o1 (stereo not shown) : 75 to 95%
CC1(S(=O)(=O)c2cccc(C(F)(F)F)c2)CCOC(c2ccc(Cl)c(S(C)(=O)=O)c2)C1 (stereo not shown) : > 95%
CC1(S(=O)(=O)c2cc(F)cc(C(F)(F)F)c2)CCOC(c2ccc(Cl)cc2)C1 (racemic) [SC-305] : 75 to 95%
CC1(S(=O)(=O)c2cccc(C(F)(F)F)n2)CCOC(c2ccc(S(C)(=O)=O)cc2)C1 (stereo not shown) : 40 to 75%
CC(C)c1cccc(S(=O)(=O)C2(C)CCOC(c3ccc(S(C)(=O)=O)c(F)c3)C2)c1 (stereo not shown) : > 95%
Cc1cc(C2CC(C)(S(=O)(=O)c3cccc(C(F)(F)F)c3)CCO2)ccc1S(C)(=O)=O (stereo not shown) : > 95%
CC1(S(=O)(=O)c2cccc(C(F)(F)F)c2)CCOC(c2ccc(S(C)(=O)=O)c(S(C)(=O)=O)c2)C1 (single isomer, unassigned) : 75 to 95%
CC1(S(=O)(=O)c2cccc(OC(F)(F)F)c2)CCOC(c2ccc(Cl)cc2)C1 (stereo not shown) [SC-313] : > 95%
CC(C)c1ccc(C(F)(F)F)cc1S(=O)(=O)C1CCOC(c2ccc(Cl)cc2)C1 (stereo not shown) : 40 to 75%
